Molecular target: recombinant human-Dectin-1 mouse Fc fusion (human) (UniProt Q9BXN2)
Assay: Octet BLI, response at X
Define the label as satisfied when X = 340 is strictly less than 0.03 and as not satisfied in all remaining cases.

A selection of reference data follows.
# BINDER, LABEL
records = [
    ("2M24A.1.1 hFab (Fab, V domains shown) VH: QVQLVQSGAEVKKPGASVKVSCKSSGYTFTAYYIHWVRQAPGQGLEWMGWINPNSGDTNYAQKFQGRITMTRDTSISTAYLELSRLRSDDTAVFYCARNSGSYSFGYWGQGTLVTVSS VL: DIQMTQSPSSVSASVGDRVTITCRASQGISSWLAWYQQKPGKAPKLLIFGASSLQSGVPSRFSGSGSGTDFTLTVSSLQPEDFATYYCQQAASFPFTFGPGTKVDIE", "not satisfied"),
    ("2M24A.1.4 hFab (Fab, V domains shown) VH: QVQLVQSGAEVKKPGASVKVSCKSSGYTFTDYYIHWVRQAPGQGLEWMGWINPNSGDTNYAQKFQGRITMTRDTSISTAYLELSRLRSDDTAVFYCARNSGSASFGYWGQGTLVTVSS VL: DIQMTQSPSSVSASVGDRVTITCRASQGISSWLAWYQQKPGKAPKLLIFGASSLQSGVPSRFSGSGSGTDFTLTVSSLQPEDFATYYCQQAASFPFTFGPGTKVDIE", "satisfied"),
]

Field: below-cutoff. Rule: recorded X = 340 strictly less than 0.03. Subject: 2M24A.1.7 hFab (Fab, V domains shown) VH: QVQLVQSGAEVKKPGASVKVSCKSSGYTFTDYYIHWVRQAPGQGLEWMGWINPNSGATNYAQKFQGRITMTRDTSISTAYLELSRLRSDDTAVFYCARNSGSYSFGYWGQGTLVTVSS VL: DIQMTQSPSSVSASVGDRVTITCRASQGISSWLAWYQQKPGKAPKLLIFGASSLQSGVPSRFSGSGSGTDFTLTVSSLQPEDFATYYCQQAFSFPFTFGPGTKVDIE not satisfied

Field: below-cutoff. Rule: recorded X = 340 strictly less than 0.03. Subject: 2M24A.1.13 hFab (Fab, V domains shown) VH: QVQLVQSGAEVKKPGASVKVSCKSSGYTFTDYYIHWVRQAPGQGLEWMGWINPNSGDTNYAQKFQGRITMTRDTSISTAYLELSRLRSDDTAVFYCARASGSYSFGYWGQGTLVTVSS VL: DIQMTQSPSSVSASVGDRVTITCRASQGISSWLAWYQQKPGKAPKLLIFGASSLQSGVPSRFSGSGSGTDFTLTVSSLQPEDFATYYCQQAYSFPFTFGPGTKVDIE satisfied

Field: below-cutoff. Rule: recorded X = 340 strictly less than 0.03. Subject: 2M24A.1.8 hFab (Fab, V domains shown) VH: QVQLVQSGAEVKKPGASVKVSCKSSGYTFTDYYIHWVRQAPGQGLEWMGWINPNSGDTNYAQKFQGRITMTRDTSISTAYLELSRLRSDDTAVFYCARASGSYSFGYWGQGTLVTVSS VL: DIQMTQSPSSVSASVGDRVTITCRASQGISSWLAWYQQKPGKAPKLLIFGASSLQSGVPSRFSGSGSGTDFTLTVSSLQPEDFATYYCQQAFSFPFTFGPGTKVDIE not satisfied
